- Tested on: IL-1β
- ASSAY_PROCEDURE: IL-1β inhibition assay, LPS-induced PBMCs / CD14+ monocytes (Meso Scale)
- Type: cell-based
- EXPERIMENTAL_SETUP: 1 h pretreatment, 100 ng/mL LPS 18-24 h
- Method: Either frozen primary blood mononuclear cells (PBMCs) or frozen CD14+ mobilized peripheral blood monocytes were purchased from AllCells (PB003F, Normal Peripheral Blood MNC (Alameda, Calif.)). Cells were quick thawed, washed 1-time with RPMI-1640 (10% FBS/1% Pen-Strep) and plated in 96 well plates at 200,000 cells per well. […] The supernatant was analyzed for IL-1β, IL-6, and TNFα, using Meso Scale assay according to manufacturer's protocol. […]
# inhibition at 1 µM annotations

Below, 4 molecules whose answers are already recorded.
INSERT INTO assay_data (molecule, test_target, recorded_measurement) VALUES
  ('Cn1ncc(-c2nc(N[C@H]3CC[C@H](NCCOCCOCCNCc4ccc(OCc5scc6c5CN([C@H]5CCC(=O)NC5=O)C6=O)cc4)CC3)ncc2Cl)c1CC1CC1', 'IL-1β', '> 90%'),
  ('Cn1ncc(-c2nc(N[C@H]3CC[C@H](NC(=O)CCCCCCNC(=O)NCc4cc5c(s4)C(=O)N(C4CCC(=O)NC4=O)C5)CC3)ncc2Cl)c1CC1CC1 (stereo partly shown)', 'IL-1β', '> 90%'),
  ('CC(C)(C)c1cnc(CSc2cnc(NC(=O)C3CCN(CC(=O)NCCOCCNC(=O)NCc4cc5c(s4)C(=O)N(C4CCC(=O)NC4=O)C5)CC3)s2)o1 (stereo not shown)', 'IL-1β', '> 90%'),
  ('Cn1ncc(-c2cc(N[C@H]3CC[C@H](NCCCCCCCCNC(=O)NCc4cc5c(s4)C(=O)N(C4CCC(=O)NC4=O)C5)CC3)ncc2F)c1CC1CC1 (stereo partly shown)', 'IL-1β', '70 to 90%');

The molecule CC(C)(C)c1cnc(CSc2cnc(NC(=O)C3CCN(CC(=O)NCCOCCOCCNCC(=O)NCc4scc5c4CN(C4CCC(=O)NC4=O)C5=O)CC3)s2)o1 (stereo not shown) showed inhibition at 1 µM equal to > 90%

###

# Dmax at 1 µM annotations
- TEST_TARGET: IKAROS (Homo sapiens, UniProt Q13422+Q96SW2)
- Construct: endogenous in cells; host or cells: MV-4-11
- Sequence (Q13422 whole entry): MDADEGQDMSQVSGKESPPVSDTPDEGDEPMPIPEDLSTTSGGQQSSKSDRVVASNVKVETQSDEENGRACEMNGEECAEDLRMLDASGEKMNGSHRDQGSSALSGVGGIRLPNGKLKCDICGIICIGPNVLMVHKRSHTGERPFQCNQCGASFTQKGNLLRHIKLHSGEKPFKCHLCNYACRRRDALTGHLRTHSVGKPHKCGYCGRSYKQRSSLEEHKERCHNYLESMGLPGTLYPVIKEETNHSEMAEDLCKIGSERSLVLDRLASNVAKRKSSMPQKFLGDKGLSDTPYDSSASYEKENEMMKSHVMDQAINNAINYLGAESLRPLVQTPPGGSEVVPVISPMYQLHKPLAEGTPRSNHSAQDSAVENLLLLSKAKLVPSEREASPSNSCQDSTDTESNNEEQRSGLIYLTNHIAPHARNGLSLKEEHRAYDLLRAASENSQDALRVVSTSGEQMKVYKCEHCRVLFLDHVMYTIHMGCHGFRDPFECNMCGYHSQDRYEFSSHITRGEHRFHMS
- Sequence (Q96SW2 whole entry): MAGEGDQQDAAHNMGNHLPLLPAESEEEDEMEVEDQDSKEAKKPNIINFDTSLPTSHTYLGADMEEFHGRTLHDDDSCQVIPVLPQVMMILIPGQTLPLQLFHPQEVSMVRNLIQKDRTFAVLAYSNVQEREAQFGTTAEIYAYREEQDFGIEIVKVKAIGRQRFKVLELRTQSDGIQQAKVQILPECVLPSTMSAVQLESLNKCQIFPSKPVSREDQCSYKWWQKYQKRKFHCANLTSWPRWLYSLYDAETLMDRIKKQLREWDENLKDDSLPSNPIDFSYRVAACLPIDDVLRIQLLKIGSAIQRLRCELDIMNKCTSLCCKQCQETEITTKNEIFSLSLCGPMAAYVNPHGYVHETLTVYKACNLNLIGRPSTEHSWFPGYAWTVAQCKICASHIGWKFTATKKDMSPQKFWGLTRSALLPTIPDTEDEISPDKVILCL
- Sequence (Q16531 whole entry partner): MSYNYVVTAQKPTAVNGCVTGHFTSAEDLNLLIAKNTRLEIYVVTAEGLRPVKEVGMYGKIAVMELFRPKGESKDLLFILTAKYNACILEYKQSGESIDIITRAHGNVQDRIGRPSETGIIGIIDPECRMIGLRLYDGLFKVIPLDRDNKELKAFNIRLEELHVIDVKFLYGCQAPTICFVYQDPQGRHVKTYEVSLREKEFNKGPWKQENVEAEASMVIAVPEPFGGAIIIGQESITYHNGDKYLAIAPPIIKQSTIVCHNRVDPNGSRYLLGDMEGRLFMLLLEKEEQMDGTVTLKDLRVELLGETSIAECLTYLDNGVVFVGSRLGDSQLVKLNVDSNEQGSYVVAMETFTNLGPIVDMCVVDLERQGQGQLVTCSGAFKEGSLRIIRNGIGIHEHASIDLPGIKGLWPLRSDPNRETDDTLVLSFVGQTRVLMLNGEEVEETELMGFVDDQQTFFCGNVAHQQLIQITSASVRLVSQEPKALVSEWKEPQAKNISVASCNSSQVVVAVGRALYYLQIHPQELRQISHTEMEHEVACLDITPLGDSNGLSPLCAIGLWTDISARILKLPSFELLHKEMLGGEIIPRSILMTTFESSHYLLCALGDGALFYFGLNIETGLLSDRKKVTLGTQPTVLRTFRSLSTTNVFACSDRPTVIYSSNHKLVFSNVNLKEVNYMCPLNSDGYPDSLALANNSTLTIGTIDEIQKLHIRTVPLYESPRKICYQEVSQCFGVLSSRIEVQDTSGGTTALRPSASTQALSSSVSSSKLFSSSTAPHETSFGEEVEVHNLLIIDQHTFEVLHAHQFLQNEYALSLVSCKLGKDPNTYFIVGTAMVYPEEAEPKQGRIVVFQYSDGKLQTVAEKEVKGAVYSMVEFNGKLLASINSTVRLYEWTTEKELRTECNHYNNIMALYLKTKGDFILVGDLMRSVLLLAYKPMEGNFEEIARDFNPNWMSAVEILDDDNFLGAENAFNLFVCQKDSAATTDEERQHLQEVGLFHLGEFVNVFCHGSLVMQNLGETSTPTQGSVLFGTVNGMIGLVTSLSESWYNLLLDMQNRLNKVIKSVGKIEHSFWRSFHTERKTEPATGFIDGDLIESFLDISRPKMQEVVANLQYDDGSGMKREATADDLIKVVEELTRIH
- ASSAY_PROCEDURE: IKAROS degradation assay (Western blot, MV-4-11 cells)
- Format: cell-based
- EXPERIMENTAL_SETUP: MV4-11, 6-8 h

The compound Cn1ncc(-c2nc(N[C@H]3CC[C@H](NC(=O)CCCCCCNCC(=O)NCc4ccc(COc5cccc6c5CN(C5CCC(=O)NC5=O)C6=O)cc4)CC3)ncc2Cl)c1CC1CC1 (some centres unmarked) showed Dmax at 1 µM equal to 50 to 75%

The compound CC(C)(C)c1cnc(CSc2cnc(NC(=O)C3CCN(CCCCCCCCNC(=O)NCc4cc5c(s4)C(=O)N(C4CCC(=O)NC4=O)C5)CC3)s2)o1 (centres unmarked) showed Dmax at 1 µM equal to 50 to 75%

The compound CC(C)(C)c1cnc(CSc2cnc(NC(=O)C3CCN(CC(=O)NCCOCCOCCOCCNCC(=O)NCc4cc5c(s4)C(=O)N(C4CCC(=O)NC4=O)C5)CC3)s2)o1 (centres unmarked) showed Dmax at 1 µM equal to 25 to 50%

The compound Cn1ncc(-c2nc(N[C@H]3CC[C@H](NCC(=O)NCCCCCNCC(=O)NCc4cc5c(s4)C(=O)N(C4CCC(=O)NC4=O)C5)CC3)ncc2F)c1CC1CC1 (some centres unmarked) showed Dmax at 1 µM equal to 25 to 50%

The compound Cn1ncc(-c2nc(N[C@H]3CC[C@H](NCC(=O)NCCOCCOCCOCCNc4cccc5c4CN(C4CCC(=O)NC4=O)C5=O)CC3)ncc2Cl)c1CC1CC1 (some centres unmarked) showed Dmax at 1 µM equal to ≥ 75%

###

- TEST_TARGET: CK1α (Homo sapiens, UniProt P48729+Q96SW2)
- Construct: Whole cell extracts were prepared using RIPA buffer; endogenous in cells; host or cells: MV-4-11
- Sequence (P48729 whole entry): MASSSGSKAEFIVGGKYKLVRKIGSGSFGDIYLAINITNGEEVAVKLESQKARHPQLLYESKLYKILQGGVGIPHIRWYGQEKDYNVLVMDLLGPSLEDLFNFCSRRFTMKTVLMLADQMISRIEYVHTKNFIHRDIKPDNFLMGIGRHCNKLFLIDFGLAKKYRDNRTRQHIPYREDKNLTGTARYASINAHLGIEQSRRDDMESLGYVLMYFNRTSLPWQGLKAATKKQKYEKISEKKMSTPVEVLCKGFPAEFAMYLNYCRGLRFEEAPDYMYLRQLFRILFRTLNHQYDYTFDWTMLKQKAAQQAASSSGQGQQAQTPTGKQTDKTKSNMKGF
- Sequence (Q96SW2 whole entry): as the sequence (Q96SW2 whole entry) above
- Sequence (Q16531 whole entry partner): as the sequence (Q16531 whole entry partner) above
- ASSAY_PROCEDURE: CK1α degradation assay (Western blot, MV-4-11 cells)
- Type: cell-based
- EXPERIMENTAL_SETUP: MV4-11, 6-8 h
- Description: MV-4-11 cells were grown in RPMI 1640 media supplemented with 10% fetal bovine serum, streptomycin and penicillin. Cells were cultured at approximately 10^6 cells per mL and incubated in DMSO or the indicated compound for 6-8 h. […] For Western blot analysis, whole cell protein extracts were separated on 4-12% SDS-polyacrylamide gels, transferred to nitrocellulose and probed with the indicated primary antibodies. […] The signal was detected using the Odyssey Imaging System (LI-COR). […]
READOUT_LABEL: Dmax at 1 µM

INSERT INTO measurements (compound, recorded_measurement) VALUES
  ('Cn1ncc(-c2nc(N[C@H]3CC[C@H](NCC(=O)NCCNC(=O)NCc4cc5c(s4)C(=O)N(C4CCC(=O)NC4=O)C5)CC3)ncc2Cl)c1CC1CC1 (stereo partly drawn) [Compound 45]', '< 25%'),
  ('CC(C)(C)c1cnc(CSc2cnc(NC(=O)C3CCN(CC(=O)NCCCCNCc4ccc(OCc5scc6c5CN([C@H]5CCC(=O)NC5=O)C6=O)cc4)CC3)s2)o1 (stereo in doubt) [Compound 54]', '50 to 75%');

The compound CC(C)(C)c1cnc(CSc2cnc(NC(=O)C3CCN(CC(=O)NCCCCCNCC(=O)NCc4scc5c4CN(C4CCC(=O)NC4=O)C5=O)CC3)s2)o1 (stereo not drawn) [Compound 33] showed Dmax at 1 µM equal to ≥ 75%

###

- TEST_TARGET: CDK9 (Homo sapiens, UniProt P50750)
- Construct: Whole cell extracts were prepared using RIPA buffer; endogenous in cells; host or cells: MV-4-11
- Sequence (P50750 whole entry): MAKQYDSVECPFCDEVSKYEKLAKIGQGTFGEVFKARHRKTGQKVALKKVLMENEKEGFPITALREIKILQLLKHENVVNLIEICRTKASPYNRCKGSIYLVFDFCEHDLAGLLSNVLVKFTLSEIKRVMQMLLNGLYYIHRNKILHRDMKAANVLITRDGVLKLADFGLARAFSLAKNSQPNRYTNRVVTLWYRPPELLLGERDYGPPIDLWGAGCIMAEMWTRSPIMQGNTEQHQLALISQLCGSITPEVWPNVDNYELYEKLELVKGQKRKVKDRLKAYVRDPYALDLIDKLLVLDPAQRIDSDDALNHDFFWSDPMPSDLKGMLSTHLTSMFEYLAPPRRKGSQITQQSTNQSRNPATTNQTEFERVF
- ASSAY_PROCEDURE: CDK9 degradation assay (Western blot, MV-4-11 cells)
- Type: cell-based
- EXPERIMENTAL_SETUP: MV4-11, 0.1 μM, 6-8 h
# Dmax at 0.1 µM annotations

The molecule Cn1ncc(-c2nc(N[C@H]3CC[C@H](NCC(=O)NCCCCCNCC(=O)NCc4cc5c(s4)C(=O)N(C4CCC(=O)NC4=O)C5)CC3)ncc2Cl)c1CC1CC1 (some centres unmarked) [Compound 30] showed Dmax at 0.1 µM equal to 50 to 75%

The molecule CN(CCNC(=O)CN1CCC(C(=O)Nc2ncc(SCc3ncc(C(C)(C)C)o3)s2)CC1)CCNC(=O)NCc1cc2c(s1)C(=O)N(C1CCC(=O)NC1=O)C2 (centres unmarked) [Compound 15] showed Dmax at 0.1 µM equal to 50 to 75%

The molecule CC(C)(C)c1cnc(CSc2cnc(NC(=O)C3CCN(CC(=O)NCCOCCOCCOCCNCC(=O)NCc4cc5c(s4)C(=O)N(C4CCC(=O)NC4=O)C5)CC3)s2)o1 (centres unmarked) [Compound 42] showed Dmax at 0.1 µM equal to 25 to 50%

The molecule Cn1ncc(-c2nc(N[C@H]3CC[C@H](NCC(=O)NCCNCC(=O)NCc4cc5c(s4)C(=O)N(C4CCC(=O)NC4=O)C5)CC3)ncc2Cl)c1CC1CC1 (some centres unmarked) [Compound 40] showed Dmax at 0.1 µM equal to 50 to 75%

The molecule Cn1ncc(-c2nc(N[C@H]3CC[C@H](NCC(=O)NCCCCCNCC(=O)NCc4scc5c4CN(C4CCC(=O)NC4=O)C5=O)CC3)ncc2F)c1CC1CC1 (some centres unmarked) [Compound 32] showed Dmax at 0.1 µM equal to 50 to 75%

###

- TEST_TARGET: CK1α (Homo sapiens, UniProt P48729+Q96SW2)
- Construct: Whole cell extracts were prepared using RIPA buffer; endogenous in cells; host or cells: MV-4-11
- ASSAY_PROCEDURE: CK1α degradation assay (Western blot, MV-4-11 cells)
- Format: cell-based
- EXPERIMENTAL_SETUP: MV4-11, 6-8 h
READOUT_LABEL: Dmax at 1 µM

Below, 5 compounds whose answers are already recorded.
INSERT INTO assay_data (compound, test_target, recorded_measurement) VALUES
  ('Cn1ncc(-c2nc(N[C@H]3CC[C@H](NCCCCCCCCNC(=O)NCc4cc5c(s4)C(=O)N(C4CCC(=O)NC4=O)C5)CC3)ncc2Cl)c1CC1CC1 (some centres unmarked)', 'CK1α (Homo sapiens, UniProt P48729+Q96SW2)', '< 25%'),
  ('Cn1ncc(-c2nc(N[C@H]3CC[C@H](NCC(=O)NCCCCNCC(=O)NCc4cc5c(s4)C(=O)N(C4CCC(=O)NC4=O)C5)CC3)ncc2Cl)c1CC1CC1 (some centres unmarked)', 'CK1α (Homo sapiens, UniProt P48729+Q96SW2)', '25 to 50%'),
  ('Cn1ncc(-c2nc(N[C@H]3CC[C@H](NCCOCCOCCNCc4ccc(OCc5scc6c5CN([C@H]5CCC(=O)NC5=O)C6=O)cc4)CC3)ncc2Cl)c1CC1CC1', 'CK1α (Homo sapiens, UniProt P48729+Q96SW2)', '25 to 50%'),
  ('Cn1ncc(-c2nc(N[C@H]3CC[C@H](NCC(=O)NCCOCCOCCOCCNc4cccc5c4CN(C4CCC(=O)NC4=O)C5=O)CC3)ncc2Cl)c1CC1CC1 (some centres unmarked)', 'CK1α (Homo sapiens, UniProt P48729+Q96SW2)', '25 to 50%'),
  ('CC(C)(C)c1cnc(CSc2cnc(NC(=O)C3CCN(CC(=O)NCCCCCNC(=O)NCc4scc5c4CN(C4CCC(=O)NC4=O)C5=O)CC3)s2)o1 (centres unmarked)', 'CK1α (Homo sapiens, UniProt P48729+Q96SW2)', '25 to 50%');

The compound Cn1ncc(-c2nc(N[C@H]3CC[C@H](NC(=O)CCCCCCNCC(=O)Nc4cccc5c4CN([C@H]4CCCC(=O)NC4=O)C5=O)CC3)ncc2Cl)c1CC1CC1 showed Dmax at 1 µM equal to < 25%

The compound Cn1ncc(-c2nc(N[C@H]3CC[C@H](NCCOCCOCCOCCOCCNc4cccc5c4C(=O)N(C4CCC(=O)NC4=O)C5=O)CC3)ncc2Cl)c1CC1CC1 (some centres unmarked) showed Dmax at 1 µM equal to 25 to 50%

The compound CC(C)(C)c1cnc(CSc2cnc(NC(=O)C3CCN(CC(=O)NCCOCCNC(=O)NCc4ccc5c(c4)CN([C@H]4CCCC(=O)NC4=O)C5=O)CC3)s2)o1 showed Dmax at 1 µM equal to < 25%
